Where these numbers come from: patent US12319655B2

System: H2405 cells
ASSAY INFO: H2405 Cell Proliferation Assay (1)
Type: cell-based
CONDITION DETAILS: Homo sapiens, NCI-H2405
pIC50: −log10 of the molar value.
ENDPOINT: pIC50

INSERT INTO assay_data (smiles_code, test_target, endpoint, readout_value) VALUES
  ('Cc1ncc(NC(=O)c2ccnc(C(C)(C)C#N)c2)cc1-c1cccc(-c2ccnc3[nH]cnc23)c1', 'H2405 cells', 'pIC50', '5.00 to 6.00'),
  ('CCNC(=O)c1cc(-c2cc(-c3cc(NC(=O)c4ccnc(C(C)(C)C#N)c4)ccc3C)ccn2)ccn1', 'H2405 cells', 'pIC50', '6.30 to 7.00'),
  ('Cc1ncc(NC(=O)c2cnnc(C3CC3)c2)cc1-c1ccnc(-c2ccnc(NC(=O)C3CC3)c2)n1', 'H2405 cells', 'pIC50', '5.00 to 6.00'),
  ('CNC(=O)c1cc(-c2cnnc(-c3cc(NC(=O)c4ccnc(C(F)F)c4)ccc3C)c2)ccn1', 'H2405 cells', 'pIC50', '5.00 to 6.00'),
  ('Cc1ncc(NC(=O)c2ccnc(C3CC3)c2)cc1-c1ccnc(-c2ccnc(NC(=O)C3CC3)c2)n1', 'H2405 cells', 'pIC50', '6.30 to 7.00'),
  ('Cc1ccc(NC(=O)c2ccnc(C(C)(C)F)c2)cc1-c1cc(-c2ccnc(NC(=O)C3CC3)c2)cnn1', 'H2405 cells', 'pIC50', '≥ 7.00'),
  ('COC(=O)Nc1cc(-c2cncc(-c3cc(NC(=O)c4ccnc(C(C)(C)C#N)c4)ccc3C)c2)ncn1', 'H2405 cells', 'pIC50', '≥ 7.00'),
  ('COC(=O)Nc1cc(-c2cccc(-c3cc(NC(=O)c4ccnc(C(C)(C)C#N)c4)cnc3C)c2)ccn1', 'H2405 cells', 'pIC50', '6.00 to 6.30'),
  ('CNC(=O)c1cc(-c2nc(-c3cc(NC(=O)c4ccnc(C(C)(C)C#N)c4)ccc3C)cc(C3CC3)n2)ccn1', 'H2405 cells', 'pIC50', '6.30 to 7.00'),
  ('Cc1ccc(NC(=O)c2cc(C3CC3)on2)cc1-c1cncc(-c2cc(NC(=O)C3CC3)ncn2)c1', 'H2405 cells', 'pIC50', '≥ 7.00'),
  ('CNC(=O)c1cc(-c2cc(-c3cc(NC(=O)c4ccnc(C(F)F)c4)ccc3C)ccn2)ccn1', 'H2405 cells', 'pIC50', '6.30 to 7.00'),
  ('CC(=O)Nc1cc(-c2cc(-c3cc(NC(=O)c4ccnc(C(C)(C)C#N)c4)ccc3C)ccn2)ccn1', 'H2405 cells', 'pIC50', '≥ 7.00'),
  ('Cc1ncc(NC(=O)c2ccnc(C(C)C)c2)cc1-c1cccc(-c2ccnc(NC(=O)C3CC3)c2)n1', 'H2405 cells', 'pIC50', '≥ 7.00'),
  ('Cc1ccc(NC(=O)c2ccnc(C(F)(F)F)c2)cc1-c1cccc(-c2cc(NC(=O)C3CC3)ncn2)c1', 'H2405 cells', 'pIC50', '≥ 7.00'),
  ('COC(=O)Nc1cc(-c2cnnc(-c3cc(NC(=O)c4cccc(C(C)(C)C#N)c4)ccc3C)c2)ccn1', 'H2405 cells', 'pIC50', '6.30 to 7.00');
